Hello, the source for this data is ChEMBL document CHEMBL3885861, in case you need it.

Reported values of CRE for individual entries
species: Rattus norvegicus; assay: Open TG-GATES - Regimen: Daily Repeat; format: toxicity, organism-based, Sprague-Dawley; set-up: regimen Daily Repeat, gender Male, age 6 weeks; settings: in vivo, po, 1000 mg/kg, […], tissue Plasma, route gavage, dose level High, time 28 day
Please respond with the number in mg/dL and leave the unit unwritten.

Answered examples (3):
CCOc1ccc(NC(C)=O)cc1 | 0.3
COC(=O)C1=C(C)NC(C)=C(C(=O)OC)C1c1ccccc1[N+](=O)[O-] | 0.3
Cc1nnc2n1-c1ccc(Cl)cc1C(c1ccccc1Cl)=NC2 | 0.2

Give the measured CRE of CN/C(=N/CCSCc1nc[nH]c1C)NC#N .
0.6

Query (molecule): CNC(=C[N+](=O)[O-])NCCSCc1ccc(CN(C)C)o1 ; field requested: CRE
0.5

I'd like to know its CRE. The molecule in question is O=C(OC[C@H]1O[C@@H](OC(=O)c2cc(O)c(O)c(OC(=O)c3cc(O)c(O)c(O)c3)c2)[C@H](OC(=O)c2cc(O)c(O)c(OC(=O)c3cc(O)c(O)c(O)c3)c2)[C@@H](OC(=O)c2cc(O)c(O)c(OC(=O)c3cc(O)c(O)c(O)c3)c2)[C@@H]1OC(=O)c1cc(O)c(O)c(OC(=O)c2cc(O)c(O)c(O)c2)c1)c1cc(O)c(O)c(OC(=O)c2cc(O)c(O)c(O)c2)c1
0.5

* * *

organism: Rattus norvegicus; experiment: Open TG-GATES - Regimen: Daily Repeat; assay type: toxicity, organism-based, Sprague-Dawley; design: regimen Daily Repeat, gender Male, age 6 weeks; conditions: in vivo, po, 300 mg/kg, 72 h, tissue Blood, route gavage, dose level Middle, time 3 day
Below, each entry is listed with its recorded APTT.
Give the number first and the unit second.

// below: answered compounds
CNC(=C[N+](=O)[O-])NCCSCc1ccc(CN(C)C)o1 | 20.3 s
CN/C(=N/CCSCc1nc[nH]c1C)NC#N | 18.9 s
O=C(OC[C@H]1O[C@@H](OC(=O)c2cc(O)c(O)c(OC(=O)c3cc(O)c(O)c(O)c3)c2)[C@H](OC(=O)c2cc(O)c(O)c(OC(=O)c3cc(O)c(O)c(O)c3)c2)[C@@H](OC(=O)c2cc(O)c(O)c(OC(=O)c3cc(O)c(O)c(O)c3)c2)[C@@H]1OC(=O)c1cc(O)c(O)c(OC(=O)c2cc(O)c(O)c(O)c2)c1)c1cc(O)c(O)c(OC(=O)c2cc(O)c(O)c(O)c2)c1 | 16.1 s
Cc1nnc2n1-c1ccc(Cl)cc1C(c1ccccc1Cl)=NC2 | 25.7 s

Name the recorded APTT for COC(=O)C1=C(C)NC(C)=C(C(=O)OC)C1c1ccccc1[N+](=O)[O-] .
18.7 s

Suppose we examine the compound CCOc1ccc(NC(C)=O)cc1 ; what APTT value has been reported?
21.5 s

* * *

organism: Rattus norvegicus; test: Open TG-GATES - Regimen: Daily Repeat; format: toxicity, organism-based, Sprague-Dawley; design: regimen Daily Repeat, gender Male, age 6 weeks; settings: in vivo, po, 1000 mg/kg, […], tissue Blood, route gavage, dose level High, time 7 day
Reported Ht values for a set of compounds
Reply with just the number (in %).

Cc1nnc2n1-c1ccc(Cl)cc1C(c1ccccc1Cl)=NC2 | 40.7

Which Ht value belongs to CNC(=C[N+](=O)[O-])NCCSCc1ccc(CN(C)C)o1 ?
39.1

Ht for COC(=O)C1=C(C)NC(C)=C(C(=O)OC)C1c1ccccc1[N+](=O)[O-] ?
42.6

Entry under review: CN/C(=N/CCSCc1nc[nH]c1C)NC#N . Reported Ht?
40.7

What does the record list as Ht for CCOc1ccc(NC(C)=O)cc1 ?
33.4

Looking for the measured Ht of O=C(OC[C@H]1O[C@@H](OC(=O)c2cc(O)c(O)c(OC(=O)c3cc(O)c(O)c(O)c3)c2)[C@H](OC(=O)c2cc(O)c(O)c(OC(=O)c3cc(O)c(O)c(O)c3)c2)[C@@H](OC(=O)c2cc(O)c(O)c(OC(=O)c3cc(O)c(O)c(O)c3)c2)[C@@H]1OC(=O)c1cc(O)c(O)c(OC(=O)c2cc(O)c(O)c(O)c2)c1)c1cc(O)c(O)c(OC(=O)c2cc(O)c(O)c(O)c2)c1 , can you help?
40

* * *

Attribute: APTT
organism: Rattus norvegicus; assay: Open TG-GATES - Regimen: Single; type: toxicity, organism-based, Sprague-Dawley; set-up: regimen Single, gender Male, age 6 weeks; settings: in vivo, po, 0 mg/kg, 24 h, tissue Blood, route gavage, dose level Control
Numeric answer only, unit s assumed.

Recorded APTT, per entry:
CCCc1cc(=O)[nH]c(=S)[nH]1 | 16.1
CCOc1ccc(NC(C)=O)cc1 | 17.2
NC1=NC(=O)C(c2ccccc2)O1 (stereo not drawn) | 17.2
O=C(OC[C@H]1O[C@@H](OC(=O)c2cc(O)c(O)c(OC(=O)c3cc(O)c(O)c(O)c3)c2)[C@H](OC(=O)c2cc(O)c(O)c(OC(=O)c3cc(O)c(O)c(O)c3)c2)[C@@H](OC(=O)c2cc(O)c(O)c(OC(=O)c3cc(O)c(O)c(O)c3)c2)[C@@H]1OC(=O)c1cc(O)c(O)c(OC(=O)c2cc(O)c(O)c(O)c2)c1)c1cc(O)c(O)c(OC(=O)c2cc(O)c(O)c(O)c2)c1 | 16.7
CC(C)NNC(=O)c1ccncc1 | 21.7

Which APTT is reported for this compound? Brc1ccccc1
15.4

For the compound CN/C(=N/CCSCc1nc[nH]c1C)NC#N , what APTT is on record?
18.8

Which APTT is listed for Nc1c2c(nc3ccccc13)CCCC2 ?
20.5

* * *

species on record: Rattus norvegicus; assay: Open TG-GATES - Regimen: Single; type: toxicity, organism-based, Sprague-Dawley; parameters: regimen Single, gender Male, age 6 weeks; details: in vivo, po, 0 mg/kg, 3 h, tissue Plasma, route gavage, dose level Control
experimental_endpoint: Cl (meq/L)
Write down the numeric answer in meq/L and omit the unit.

Nc1c2c(nc3ccccc13)CCCC2 | 106.8

Looking for the measured Cl of NC1=NC(=O)C(c2ccccc2)O1 (stereo not drawn) , can you help?
104.2

Endpoint output: Cl of Brc1ccccc1 . Value?
106.2

Which Cl is reported for this compound? CNC(=C[N+](=O)[O-])NCCSCc1ccc(CN(C)C)o1
103

May I ask what Cl has been recorded for Cc1nnc2n1-c1ccc(Cl)cc1C(c1ccccc1Cl)=NC2 ?
105.6

Looking for the measured Cl of CN/C(=N/CCSCc1nc[nH]c1C)NC#N , can you help?
102.6

What does the record list as Cl for CN(C)CCC(c1ccc(Cl)cc1)c1ccccn1 (stereo not drawn) ?
107.2

Given the compound COC(=O)C1=C(C)NC(C)=C(C(=O)OC)C1c1ccccc1[N+](=O)[O-] , what is its reported Cl?
105.6

* * *

organism: Rattus norvegicus; experiment: Open TG-GATES - Regimen: Daily Repeat; format: toxicity, organism-based, Sprague-Dawley; parameters: regimen Daily Repeat, gender Male, age 6 weeks; settings: in vivo, po, 0 mg/kg, 72 h, tissue Kidney, route gavage, dose level Control, time 3 day
compounds and their reported KIDNEY_R
State just the number; it will be interpreted in g.

Below, 3 compounds whose answers are already recorded.
CCCc1cc(=O)[nH]c(=S)[nH]1 [PROPYLTHIOURACIL] | 1
Nc1c2c(nc3ccccc13)CCCC2 [TACRINE] | 1
CN1C(=O)CCS(=O)(=O)C1c1ccc(Cl)cc1 (centres undefined) [CHLORMEZANONE] | 0.9

// next entry
Looking for the measured KIDNEY_R of Brc1ccccc1 [BROMOBENZENE] , can you help?
0.8

* * *

species: Rattus norvegicus; assay: Open TG-GATES - Regimen: Single; type: toxicity, organism-based, Sprague-Dawley; parameters: regimen Single, gender Male, age 6 weeks; details: in vivo, po, 0 mg/kg, 9 h, tissue Plasma, route gavage, dose level Control
Listing of entries alongside the reported ALT.
# value in IU/L; strip the unit string

Here are 2 compounds together with their reported answers.
CCOc1ccc(NC(C)=O)cc1 | 36.8
CNC(=C[N+](=O)[O-])NCCSCc1ccc(CN(C)C)o1 | 29.8

Endpoint output: ALT of Cc1nnc2n1-c1ccc(Cl)cc1C(c1ccccc1Cl)=NC2 . Value?
40.6

Record request: ALT value, item CCCc1cc(=O)[nH]c(=S)[nH]1
33.6

Request the reported ALT associated with CN(C)CCC(c1ccc(Cl)cc1)c1ccccn1 (stereo not given)
38.6

* * *

organism: Rattus norvegicus; experiment: Open TG-GATES - Regimen: Daily Repeat; format: toxicity, organism-based, Sprague-Dawley; design: regimen Daily Repeat, gender Male, age 6 weeks; conditions: in vivo, po, 1000 mg/kg, […], tissue Liver, route gavage, dose level High, time 28 day
experimental_endpoint: LIVER (g)
Numeric answer only, unit g assumed.

O=C(OC[C@H]1O[C@@H](OC(=O)c2cc(O)c(O)c(OC(=O)c3cc(O)c(O)c(O)c3)c2)[C@H](OC(=O)c2cc(O)c(O)c(OC(=O)c3cc(O)c(O)c(O)c3)c2)[C@@H](OC(=O)c2cc(O)c(O)c(OC(=O)c3cc(O)c(O)c(O)c3)c2)[C@@H]1OC(=O)c1cc(O)c(O)c(OC(=O)c2cc(O)c(O)c(O)c2)c1)c1cc(O)c(O)c(OC(=O)c2cc(O)c(O)c(O)c2)c1 [TANNIC ACID] | 16.8

Give the measured LIVER of CN/C(=N/CCSCc1nc[nH]c1C)NC#N [CIMETIDINE] .
16.4
